The origin of these recorded values is patent US20260092100A1.

Please go through the items and note down their IC50, original serum dilution.
# experimental_system: hMPV F protein on hMPV/A virus (human metapneumovirus, subtype A, UniProt Q6WB98 19-539)
# Sequence (Q6WB98 19-539): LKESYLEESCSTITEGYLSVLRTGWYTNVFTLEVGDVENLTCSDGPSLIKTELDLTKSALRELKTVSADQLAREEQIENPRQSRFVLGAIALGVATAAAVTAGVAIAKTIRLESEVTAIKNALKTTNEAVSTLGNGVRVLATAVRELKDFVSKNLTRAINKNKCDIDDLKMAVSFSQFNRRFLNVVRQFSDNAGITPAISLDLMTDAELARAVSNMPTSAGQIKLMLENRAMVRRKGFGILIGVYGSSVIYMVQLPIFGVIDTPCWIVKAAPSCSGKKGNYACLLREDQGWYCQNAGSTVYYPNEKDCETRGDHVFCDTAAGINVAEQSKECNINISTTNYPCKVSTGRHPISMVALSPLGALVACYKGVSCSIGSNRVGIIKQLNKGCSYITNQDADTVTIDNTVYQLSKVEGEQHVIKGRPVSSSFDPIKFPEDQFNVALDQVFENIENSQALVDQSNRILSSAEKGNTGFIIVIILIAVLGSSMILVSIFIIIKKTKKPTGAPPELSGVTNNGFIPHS
# assay_overview: cell-based or functional assay
Give the number; µg/mL is assumed, so skip it.

Q: Look at this binder and give its reported IC50, original serum dilution. 13E10 hIgG1 (antibody, V domains shown, Recombinant form with human IgG1 Fc) VH: EVKLVESGGGLVQPGGSLSLSCAASGFTFTDYYMNWVRQPPGKALEWLGFIRNKDNGYTTEYSASVKGRFTISRDNSQSILYLQMNALRAEDSATYYCTRYYFGYDGDYFDYWGQGTTLTVSS VL: EIVLTQSPTTMAASPGEKITITCSASSSISSNYLHWYQQKAGFSPKLLIYRTSNLASGVPARFSGSGSGTSYSLTIGTMEAEDVATYYCQQGSSLPRTFGGGTKLEIKR
A: 0.391

Q: Sample 42C2 hIgG1 (antibody, V domains shown, Recombinant form with human IgG1 Fc) VH: QVTLKESGPGILQPSQTLSLTCSFSGFSLSTFGMGVVWTRQPSGKGLEWLAHIWWDDDNYYNPALKSRLTISKDTSKNQVFLKIANADTADTATYYCARIVKVLEQYFDVWGTGTTVTVSS VL: DIMMTQSHKFMSTSVGDRVIFTCKASQDVGTAVAWYQQKSGQSPKLLIYWASTRHTGVPDRFTGSGSGTDFTLTISNVQSEDLADYFCQQYTSYPLTFGAGTKLELKR — what was its IC50, original serum dilution?
A: 0.276

Q: // returns reported IC50, original serum dilution for input 42C2 (mouse) (antibody, V domains shown, Mouse IgG1 / kappa; also called 42C2 mIgG; 42C2 mAB) VH: QVTLKESGPGILQPSQTLSLTCSFSGFSLSTFGMGVVWTRQPSGKGLEWLAHIWWDDDNYYNPALKSRLTISKDTSKNQVFLKIANADTADTATYYCARIVKVLEQYFDVWGTGTTVTVSS VL: DIMMTQSHKFMSTSVGDRVIFTCKASQDVGTAVAWYQQKSGQSPKLLIYWASTRHTGVPDRFTGSGSGTDFTLTISNVQSEDLADYFCQQYTSYPLTFGAGTKLELK
A: 0.391
